Test system: P. falciparum Dd2 (PfLuc) line expressing firefly luciferase, asexual blood stage
Assay: microbe, parasite or virus in culture
Format: cell-based, Plasmodium falciparum
Conditions: Plasmodium falciparum, DD2; 11-pt dose response, 96hr; read-out: P. falciparum Luciferase ABS 11-pt Reconfirmation Dose Response (96hr): Maximum inhibition (%)
Parameter: Emax (%)
Give the number; % is assumed, so skip it.

The value of Emax recorded for Cc1ccc(CN2CCCC3(CCN(Cc4ccoc4)CC3)C2)cc1 [DDD01031609] when tested on P. falciparum Dd2 (PfLuc) line expressing firefly luciferase, asexual blood stage reads 98.3

---

Tested on: P. falciparum (NF54) stage V gametocytes
Experiment: Stage V gametocyte viability assay (MitoTracker Red CMXRos high content imaging)
Format: cell-based, Plasmodium falciparum
Details: read-out: GAM V IC50; stage V gametocytes, 72 h
Parameter: IC50

// IC50 value for CN(Cc1ccsc1)c1nc(-c2ccccn2)nc2c1CCNCC2 : < 1000 nM

---

The compounds listed here are annotated with their Emax.
Tested on: P. falciparum Dd2 (PfLuc) line expressing firefly luciferase, asexual blood stage
Assay: microbe, parasite or virus in culture
Format: cell-based, Plasmodium falciparum
Conditions: Plasmodium falciparum, DD2; 11-pt dose response, 96hr; read-out: CDD P. falciparum Luciferase ABS 11-pt Reconfirmation Dose Response (96hr): Maximum inhibition (%)
Give the number; % is assumed, so skip it.

- Compound: "Fc1ccc(F)c(CN2CCC(c3cc4ncccc4cn3)CC2)c1 [DDD01058752]"
  Emax [%]: 98
- Compound: "CN1CC[C@H](N(Cc2ccccc2)Cc2ccccc2)C[C@H](O)C1 [DDD01026217]"
  Emax [%]: 93.7
- Compound: "COc1ccccc1C1(NCc2c(C)nc3c(C)cccn23)CCCC1 [DDD01057239]"
  Emax [%]: 92

// Emax value for Fc1cccc(C(NCc2ncc[nH]2)c2ccccn2)c1 (stereo not drawn) [DDD01064153, FC1=CC=CC(=C1)C(NCC1=NC=CN1)C1=CC=CC=N1] : 97.4

// Emax value for COc1cc(CNCC(O)c2cccc(F)c2)cc2c1OCO2 (stereo not drawn) [DDD01296688] : 98.5

// Emax value for CCN1CCN(C[C@@H]2CN(c3ncc(Cl)cc3F)C[C@@H]2CO)CC1 [DDD01246828] : 99.3

---

Tested on: P. falciparum Dd2
Experiment: SYBR green I asexual blood stage proliferation assay (96 h)
Format: cell-based, Plasmodium falciparum
Conditions: Plasmodium falciparum, DD2; Sybr Green I, 11-pt dose response, 96hr; read-out: CDD P. falciparum Sybr Green I ABS 11-pt Reconfirmation Dose Response (96hr): Maximum inhibition (%)
Parameter: Emax (%)
Give the number; % is assumed, so skip it.

- Compound: "Cc1cccc(OC(C)C(=O)NCC2(N(C)C)CCCC2)c1 (stereo not shown)"
  Units: "%"
  Emax: 64.8

From here, focus on the item given below.
// Emax value for COCC(O)CN(C)c1ccnc2cc(Br)ccc12 (stereo not shown) : 95.6

---

The compounds listed here are annotated with their IC50.
Target: recombinant firefly luciferase (Photinus pyralis)
Sequence (P08659 whole entry): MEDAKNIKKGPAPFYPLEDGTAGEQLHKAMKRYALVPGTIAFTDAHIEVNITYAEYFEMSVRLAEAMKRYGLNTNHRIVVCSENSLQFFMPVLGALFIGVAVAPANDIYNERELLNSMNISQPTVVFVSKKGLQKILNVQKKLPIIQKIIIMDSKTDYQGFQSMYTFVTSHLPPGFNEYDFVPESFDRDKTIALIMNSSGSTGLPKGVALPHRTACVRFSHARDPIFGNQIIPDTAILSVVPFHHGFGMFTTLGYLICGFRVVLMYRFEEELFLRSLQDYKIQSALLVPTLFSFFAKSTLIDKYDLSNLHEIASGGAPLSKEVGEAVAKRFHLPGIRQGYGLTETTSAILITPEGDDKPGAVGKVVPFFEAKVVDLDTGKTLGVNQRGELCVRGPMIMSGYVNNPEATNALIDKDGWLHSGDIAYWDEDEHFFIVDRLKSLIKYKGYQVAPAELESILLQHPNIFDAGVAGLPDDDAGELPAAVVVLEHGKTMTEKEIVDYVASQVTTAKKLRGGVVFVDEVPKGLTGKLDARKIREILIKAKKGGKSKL
Experiment: biochemical
Settings: dose response; read-out: rLuc inhibition dose response: IC50

Worked set:
- Compound: "CCS(=O)(=O)N1CCc2ccc(NC(=O)Nc3cccc(F)c3)cc21"
  IC50: "> 25 µM"
- Compound: "Cc1cc(CN2CCN(C(c3ccccc3)c3ccccc3)CC2)no1"
  IC50: "> 25 µM"
- Compound: "COc1cccc(CN2CCN(c3ccc4nncn4n3)C(C)C2)c1 (centres unmarked)"
  IC50: "> 25 µM"
- Compound: "CCOC(=O)N1CCN(c2nc(CCN)nc3sc(C)c(C)c23)CC1"
  IC50: "> 25 µM"
- Compound: "CC(C)Cc1ccc(S(=O)(=O)Nc2ccc(=O)n(C)c2)cc1"
  IC50: "> 25 µM"
- Compound: "Clc1ccc(-c2ccc(C3CNCCO3)nc2)cc1 (centres unmarked)"
  IC50: "0.0623 µM"

// IC50 value for Cc1ccc(Sc2ccc(CN3CCC4(CCCNC4=O)C3)o2)cc1 (centres unmarked) : > 25 µM

// IC50 value for CC(C)c1n[nH]c(C(=O)Nc2ccccn2)c1Br : < 0.0244 µM
